# assayed system: Glucose transporter (Leishmania mexicana) (UniProt O61059)
# assay text: ST_JUDE_LEISH: Cytotoxicity at 2uM final concentration against transgenic Leishmania Mexicana promastigotes LmGT2 that are glucose transport deficient and complemented with the L. Mexicana glucose transporter 2. Activity is measured by DNA content using SYBR green in vitro
# Format: functional

| compound | unit of measure | inhibition |
| --- | --- | --- |
| N#Cc1ccc(/C=C/C(=O)NCCCCCN2CCN(C(=O)Nc3ccc(Cl)c(C(F)(F)F)c3)CC2)cc1 | % | 1.97 |
| COc1cc(/C=N/Nc2nc(Nc3ccccc3)nc(Nc3ccccc3)n2)ccc1OCc1ccccc1[N+](=O)[O-] | % | 0.87 |
| COc1cc(Nc2nc(N)n(C(=O)c3ccc4c(c3)OCO4)n2)cc(OC)c1OC | % | 0.33 |
| CC(C)(C)C1CC(=O)CC2C(=O)N(C3CCCCC3)C(=O)C21 (stereo not given) | % | 3.68 |
| CN(Cc1cccc(F)c1)C1CCN(c2cc(NC(=O)c3ccc(F)cc3)ccn2)CC1 | % | 6.94 |
| CC(C)(C)C1CCC(C(=O)c2ccc3ccccc3c2O)CC1 (stereo not given) | % | 0.57 |
| OC1CCN(c2cc(-c3ccccn3)nc(-c3ccccn3)n2)CC1 | % | -4.46 |
| c1ccc2c(CNc3nc(NCC4CCCCC4)nc4[nH]cnc34)cccc2c1 | % | 2.36 |
| COc1cc(-c2cc3cc(Cl)c(Cl)cc3[nH]2)ccc1C(=O)NCCC1CCCN1C (stereo not given) | % | -1.26 |
| CCn1c(-c2nonc2N)nc2cnc(Oc3cccc(NC(=O)c4ccc(OCCN5CCCC5)cc4)c3)cc21 | % | 7.84 |

====

Each entry below carries its reported inhibition.
# assayed system: Hexose transporter 1 (Plasmodium falciparum) (UniProt O97467)
# assay text: ST_JUDE_LEISH: Cytotoxicity at 2uM final concentration against transgenic Leishmania Mexicana promastigotes LmPfHT that are glucose transport deficient and complemented with the Plasmodium falciparum hexose transporter. Activity is measured by DNA content using SYBR green in vitro
# Type: functional
reported property: inhibition (%)

| compound | reported property | unit of measure | numeric result |
| --- | --- | --- | --- |
| COc1ccc(Nc2ncc3c(-c4cccc(NC(=O)c5ccc(N)cc5)c4)c[nH]c3n2)cc1OC | inhibition | % | 8.84 |
| N=C(N)c1ccc(C(=O)Nc2cccc(C(=N)N)c2)cc1 | inhibition | % | 0.84 |
| O=C(Nc1ccc(Cl)cc1)N[C@H]1CCN(CCCCCNC(=O)C2CC2c2ccc(Cl)c(Cl)c2)C1 (some centres undefined) | inhibition | % | 6.32 |
| Oc1ccc2[nH]c(-c3cccs3)nc2c1CN1CCC(N2CCCC2)CC1 | inhibition | % | 6.78 |
| CCCCCCNC(=O)C1Cc2c([nH]c3cc(Cl)ccc23)C2(CCN(CCC)CC2)N1 (centres undefined) | inhibition | % | 2.13 |
| CCNc1cc(C(=O)N[C@@H](Cc2ccccc2)[C@H](O)CNCCc2cc(OC)cc(OC)c2)cc(N2CCCCS2(=O)=O)c1 | inhibition | % | 4.2 |
| CCOC(=O)c1ccc(OCCOc2ccccc2)cc1 | inhibition | % | 1.04 |
| COc1cc(-c2ccccc2)ccc1C(=O)Nc1ccc2c(c1)N(C)CCC2 | inhibition | % | 2.53 |
| O=C(NC(Cc1ccccc1)C(=O)O)c1cc(=O)c2ccccc2o1 (centres undefined) | inhibition | % | 1.17 |

====

# assayed system: Solute carrier family 2, facilitated glucose transporter member 1 (Homo sapiens) (UniProt P11166)
# Sequence (P11166 whole entry): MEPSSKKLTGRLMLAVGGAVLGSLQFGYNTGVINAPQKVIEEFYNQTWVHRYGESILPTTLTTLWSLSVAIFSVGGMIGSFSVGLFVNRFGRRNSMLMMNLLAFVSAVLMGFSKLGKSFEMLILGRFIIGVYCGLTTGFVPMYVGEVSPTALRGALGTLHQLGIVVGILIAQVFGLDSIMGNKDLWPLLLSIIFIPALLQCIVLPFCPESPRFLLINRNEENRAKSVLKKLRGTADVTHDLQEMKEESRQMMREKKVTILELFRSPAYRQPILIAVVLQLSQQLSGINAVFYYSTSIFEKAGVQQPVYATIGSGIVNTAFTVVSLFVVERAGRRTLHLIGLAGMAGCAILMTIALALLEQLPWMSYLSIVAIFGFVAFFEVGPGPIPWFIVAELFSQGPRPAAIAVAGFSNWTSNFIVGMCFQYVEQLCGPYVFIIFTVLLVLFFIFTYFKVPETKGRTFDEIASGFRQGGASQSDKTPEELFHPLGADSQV
# assay text: ST_JUDE_LEISH: Cytotoxicity at 2uM final concentration against transgenic Leishmania Mexicana promastigotes LmGLUT1 that are glucose transport deficient and complemented with the human glucose transporter GLUT1. Activity is measured by DNA content using SYBR green in vitro
# Type: functional
Reported values of inhibition for individual entries

| compound | unit of measure | inhibition |
| --- | --- | --- |
| COc1ccccc1NC(=O)Nc1cccc(-c2ccc(-c3nc4cccc(C)c4[nH]3)s2)c1 | % | 3.95 |
| COc1ccc2nccc(NCC3(O)CCC(NCc4cc5c(cn4)OCCO5)CC3)c2n1 (centres undefined) | % | -1.99 |
| CCn1c(-c2nonc2N)nc2c(-c3cc4ccccc4s3)ncc(C(=O)N3CCC(N)C3)c21 (centres undefined) | % | 82.2 |
| O=C1OC(c2cc3ccccc3n2S(=O)(=O)c2ccccc2)(c2cc3ccccc3n2S(=O)(=O)c2ccccc2)c2ccccc21 | % | 1.65 |
| O=c1ccc(CNc2nc(NCCc3ccccc3)nc3cc(Cl)ccc23)c[nH]1 | % | 1.81 |
| CCN(CC)c1ccc(C(=O)Cn2ccc(=N)cc2)cc1 | % | 1.35 |
| Cn1cccc1C(=O)Nc1cccc(-c2nn3ccccc3c2-c2ccnc(Nc3ccc4c(c3)OCCO4)n2)c1 | % | 4.74 |
| C=CCc1cc(Br)ccc1OCCCOc1c(N)nc(N)nc1N | % | 6.42 |
| CCCCN(C)CC#Cc1ccc(-c2ccc3[nH]c(C)c(Br)c(=O)c3c2)cn1 | % | 6.4 |

====

# assayed system: Glucose transporter (Leishmania mexicana) (UniProt O61059)
# assay text: ST_JUDE_LEISH: Cytotoxicity at 2uM final concentration against transgenic Leishmania Mexicana promastigotes LmGT2 that are glucose transport deficient and complemented with the L. Mexicana glucose transporter 2. Activity is measured by DNA content using SYBR green in vitro
# Format: functional
reported property: inhibition

| compound | result |
| --- | --- |
| O=C(NC1CC1)c1ccc(Cn2c(SCc3cccc(Cl)c3)nc3ccccc3c2=O)cc1 | -1.07% |
| CC(=NNC(N)=O)C1=C(O)C(c2ccccc2)N(C2CCCCC2)C1=O (stereo not drawn) | -0.27% |
| Cc1ncccc1C(=O)Nc1cccc(-c2cccc(-c3nc4cc(C(F)(F)F)ccc4[nH]3)c2)c1 | -2.48% |
| Cc1ccc(O)c(-c2cc(C(=O)Nc3ccc(S(=O)(=O)N4CCCCCC4)cc3)[nH]n2)c1 | -0.85% |
| CCCCC(=O)N(CCOC)Cc1ccc(-c2ccc(CNCCC)cn2)cc1 | 5.46% |
| CCCCCCN1CCC(NCc2cccc([N+](=O)[O-])c2)CC1 | 4.96% |
| CN(C)c1ccc(-c2csc(C(=O)NCC3CCN(CCC(C)(C)C)C3)c2)cc1 (stereo not drawn) | 0.06% |
| CC(C)NCc1cccc(-c2ccc(-c3nc4cc(C(F)(F)F)ccc4[nH]3)cc2)c1 | 6.87% |

====

# assayed system: Solute carrier family 2, facilitated glucose transporter member 1 (Homo sapiens)
# assay text: ST_JUDE_LEISH: Cytotoxicity at 2uM final concentration against transgenic Leishmania Mexicana promastigotes LmGLUT1 that are glucose transport deficient and complemented with the human glucose transporter GLUT1. Activity is measured by DNA content using SYBR green in vitro
# Assay type: functional
# binarize inhibition: threshold 10% inclusive, high side 1 (yes), low side 0 (no)

| molecule | assayed system | qualitative label |
| --- | --- | --- |
| Cc1c(Cc2ccccc2Br)cnc2nc(N)nc(N)c12 | Solute carrier family 2, facilitated glucose transporter member 1 (Homo sapiens) | 0 (no) |
| O=C(Nc1cccc(-c2ccc(-c3nc4cc(F)ccc4[nH]3)cc2)c1)c1cccnc1 | Solute carrier family 2, facilitated glucose transporter member 1 (Homo sapiens) | 0 (no) |
| CCc1c(C)c2ccc3c(c2oc1=O)CN(CCc1ccc(F)cc1)CO3 | Solute carrier family 2, facilitated glucose transporter member 1 (Homo sapiens) | 0 (no) |
| Cc1cc(N(C)C)nc(Nc2ccc(NC(=O)C(C)Oc3ccccc3)cc2)n1 (stereo not drawn) | Solute carrier family 2, facilitated glucose transporter member 1 (Homo sapiens) | 1 (yes) |
| O=S(=O)(NCCN1CCCC1)c1ccc(-c2ccc(CNCc3ccsc3)cc2)cc1 | Solute carrier family 2, facilitated glucose transporter member 1 (Homo sapiens) | 1 (yes) |
| COc1c(CNCCCCCCNCc2cc(Cl)c3ccccc3c2OC)cc(Cl)c2ccccc12 | Solute carrier family 2, facilitated glucose transporter member 1 (Homo sapiens) | 0 (no) |
| O=C(/C=C/c1ccc(Cl)c(Cl)c1)NCCCCCCN1CCN(C(=O)Nc2cc(F)cc(F)c2)CC1 | Solute carrier family 2, facilitated glucose transporter member 1 (Homo sapiens) | 0 (no) |
| CC(C)(C)OC(=O)N(Cc1cc(-n2nnnc2C(F)(F)F)ccc1O)[C@H]1CCCN(C(=O)OC(C)(C)C)[C@H]1c1ccccc1 | Solute carrier family 2, facilitated glucose transporter member 1 (Homo sapiens) | 0 (no) |

====

# assayed system: Hexose transporter 1 (Plasmodium falciparum)
# assay text: ST_JUDE_LEISH: Cytotoxicity at 2uM final concentration against transgenic Leishmania Mexicana promastigotes LmPfHT that are glucose transport deficient and complemented with the Plasmodium falciparum hexose transporter. Activity is measured by DNA content using SYBR green in vitro
# Type: functional
reported property: inhibition (%)

| molecule | reported property | unit of measure | numeric result |
| --- | --- | --- | --- |
| OC(CNc1ccnc(Nc2cccc(CCN3CCOCC3)c2)n1)c1ccccc1 (configuration not stated) | inhibition | % | 3.46 |
| CC(C)C(C(=O)Nc1ccc2c(c1)OCO2)c1ccc(Cl)cc1 (configuration not stated) | inhibition | % | 2.76 |
| COc1ccc(S(=O)(=O)NCCCC2CCN(CCCCCNC(=O)C=Cc3ccc(Cl)c(Cl)c3)CC2)cc1 | inhibition | % | 0.8 |
| CC(C)CNC(=O)c1cncc(-c2ccc(CN3CCC(N4CCCC4)CC3)cc2)c1 | inhibition | % | 1.64 |
| N=C(N)c1ccc2[nH]c(-c3cc4cc(C(=N)N)ccc4o3)cc2c1 | inhibition | % | 2.36 |
| Cc1cc(N[C@@H](Cc2ccccc2)C(=O)NCCOc2ccccc2)nc(NCCc2ccc(F)cc2)n1 | inhibition | % | 11.7 |
| CCCc1cc(C)ccc1OCCCON1C(N)=NC(N)=NC1(C)C | inhibition | % | 45.5 |
